Settings: 328.15 K; 101.33 kPa; Liquid; Vibrating tube method
Recorded metric: mass density (kg/m3)

[
  {
    "Compound": "COCCOCCOC",
    "Output unit": "kg/m3",
    "Quantitative result": 908.84
  },
  {
    "Compound": "COCCO",
    "Output unit": "kg/m3",
    "Quantitative result": 933.21
  },
  {
    "Compound": "CCOC(=O)CCC(=O)OCC [diethyl butanedioate]",
    "Output unit": "kg/m3",
    "Quantitative result": 1003.6
  },
  {
    "Compound": "CCCCC(CC)COC(C)=O (centres undefined) [2-ethylhexyl acetate]",
    "Output unit": "kg/m3",
    "Quantitative result": 841.61
  }
]
